Test system: SW-620
PROTOCOL_NOTES: NCI tumour cell line growth inhibition, 48 h
Active and inactive are the calls of the source. No stated cut-off is given here; in the data, active = GI50 up to about 1.1 µM and inactive = higher.
Outcome codes: Y for active, N for inactive

- COMPOUND: "Cn1c(=O)c2c(ncn2CCSS(=O)(=O)O)n(C)c1=O"
  CLASS_NAME: "N"
- COMPOUND: "CCOC(=O)CCC(C(=O)OCC)n1nnc2ccc(Nc3c(C)[n+]([O-])c4ccc(Cl)cc4[n+]3[O-])cc21 (stereo not given)"
  CLASS_NAME: "N"
- COMPOUND: "COC(=O)c1cc(OS(=O)(=O)C(F)(F)F)c(=O)n2c1CCCC2"
  CLASS_NAME: "N"
- COMPOUND: "O/N=C1/COC(C(F)(F)F)(C(F)(F)F)C1"
  CLASS_NAME: "N"
- COMPOUND: "CC1=NN(C(=O)Cc2ccccc2)C(=O)/C1=C\\C=C\\c1ccccc1"
  CLASS_NAME: "N"
- COMPOUND: "C[C@]12CCC3c4ccc(OC(=O)c5ccccc5)cc4CC[C@H]3C1CC[C@@H]2OC(=O)C12OC1CCC2=O (stereo not given in full)"
  CLASS_NAME: "N"
- COMPOUND: "CCCCCCCCCCCCCCN [TETRADECYLAMINE]"
  CLASS_NAME: "N"
- COMPOUND: "NCCN1C(=O)c2ccccc2C1c1ccc(Cl)cc1 (stereo not given)"
  CLASS_NAME: "N"
- COMPOUND: "CCCCCCCC/C=C\\CCCCCCCC(=O)O [OLEIC ACID]"
  CLASS_NAME: "N"
- COMPOUND: "COc1cccc(-c2cc(=O)c3cc(N4CCCCC4)ccc3[nH]2)c1"
  CLASS_NAME: "Y"

---

System: MDA-MB-231
PROTOCOL_NOTES: NCI tumour cell line growth inhibition, 48 h
Activity calls are given as the source filed them. Rule as the data show it: active = GI50 up to about 1.1 µM and inactive = higher.

- COMPOUND: "O=C1c2ccccc2C(=O)c2c(NCCCN3CCOCC3)ccc(NCCCN3CCOCC3)c21"
  MEASURED_TARGET: "MDA-MB-231"
  GI50: "3.08 µM (inactive)"
- COMPOUND: "c1ccc2c(c1)ncn2CCn1ccnc1"
  MEASURED_TARGET: "MDA-MB-231"
  GI50: "> 100 µM (inactive)"
- COMPOUND: "C#C[C@]1(O)CC[C@H]2[C@@H]3CCC4=C/C(=N\\OCCN5CCCCC5)CC[C@]4(C)[C@H]3CC[C@@]21C"
  MEASURED_TARGET: "MDA-MB-231"
  GI50: "13.9 µM (inactive)"
- COMPOUND: "COc1ccc(C2=C(OC(=O)N(C)C)c3cccn3-c3cc(Cl)ccc3S2)cc1"
  MEASURED_TARGET: "MDA-MB-231"
  GI50: "> 10 µM (inactive)"
- COMPOUND: "O=S(=O)(O)c1cc(S(=O)(=O)O)c2c(/N=N/c3ccccc3)c(O)ccc2c1"
  MEASURED_TARGET: "MDA-MB-231"
  GI50: "> 100 µM (inactive)"
- COMPOUND: "CCCCNC(=O)Nc1c(C(N)=O)c2n(c1C(=O)OCC)CCCCC2"
  MEASURED_TARGET: "MDA-MB-231"
  GI50: "21.3 µM (inactive)"
- COMPOUND: "C=C(CCCCCCCCC)CC(=O)SCCNC(=O)CCNC(=O)C(O)C(C)(C)COP(=O)(O)OP(=O)(O)OCC1OC(n2cnc3c(N)ncnc32)C(O)C1OP(=O)(O)O (stereo not given)"
  MEASURED_TARGET: "MDA-MB-231"
  GI50: "> 77.8 µM (inactive)"
- COMPOUND: "Cc1cc2nc3c(N)nn(CCN(C)C)c3nc2cc1C"
  MEASURED_TARGET: "MDA-MB-231"
  GI50: "33.8 µM (inactive)"
- COMPOUND: "O=C(O)c1cc2cc(OCc3ccccc3)ccc2[nH]1"
  MEASURED_TARGET: "MDA-MB-231"
  GI50: "> 100 µM (inactive)"
- COMPOUND: "CO/C=C(/C(=O)OC)c1ccccc1[C@H]1C[C@@H]1c1ccc(OC)cc1"
  MEASURED_TARGET: "MDA-MB-231"
  GI50: "25.5 µM (inactive)"
- COMPOUND: "COc1ccc2cc1Oc1ccc(cc1)C[C@@H]1c3cc(c(OC)cc3CCN1C)Oc1c(OC)c(OC)cc3c1[C@H](C2)N(C)CC3 [ISOTETRANDRINE]"
  MEASURED_TARGET: "MDA-MB-231"
  GI50: "14.7 µM (inactive)"
- COMPOUND: "O=C(CCN1CCOCC1)c1ccc(Oc2ccc(F)cc2)cc1"
  MEASURED_TARGET: "MDA-MB-231"
  GI50: "19.6 µM (inactive)"
- COMPOUND: "CCC1(c2ccccc2)Sc2ccccc2-n2cccc2C1=O (stereo not given)"
  MEASURED_TARGET: "MDA-MB-231"
  GI50: "9.31 µM (inactive)"
- COMPOUND: "C=CCCCC1CCCNC1=S (stereo not given)"
  MEASURED_TARGET: "MDA-MB-231"
  GI50: "> 100 µM (inactive)"
- COMPOUND: "NNC1=Nc2ccc(Cl)cc2C(=S)N2CSCC12 (stereo not given)"
  MEASURED_TARGET: "MDA-MB-231"
  GI50: "> 100 µM (inactive)"
- COMPOUND: "CN(C)Cc1cc(/N=N/c2ccccc2)ccc1O"
  MEASURED_TARGET: "MDA-MB-231"
  GI50: "32.9 µM (inactive)"
- COMPOUND: "O=C(OCCN=c1c2ccccc2ccc2ccccc12)c1cc([N+](=O)[O-])cc([N+](=O)[O-])c1"
  MEASURED_TARGET: "MDA-MB-231"
  GI50: "> 100 µM (inactive)"
- COMPOUND: "CCC1CCN/C(=N/S(=O)(=O)c2cc(C)c(Cl)cc2S)N1 (stereo not given)"
  MEASURED_TARGET: "MDA-MB-231"
  GI50: "44.8 µM (inactive)"
- COMPOUND: "C=C(C)C(O)C(O)C[C@@H](C)C1CC[C@]23C[C@]12CCC1[C@@]2(C)CCC(OC(C)=O)C(C)(C)C2CC(OC2OC(CO)C(O)C(O)C2O)[C@]13C (stereo not given in full)"
  MEASURED_TARGET: "MDA-MB-231"
  GI50: "15 µM (inactive)"
- COMPOUND: "CCOC(=O)c1c(-c2ccc(Br)cc2)ccn1C"
  MEASURED_TARGET: "MDA-MB-231"
  GI50: "> 10 µM (inactive)"
